- Test system: KM20L2 colon
- Assay info: NCI tumour cell line growth inhibition, 48 h
Reported metric: TGI

Exercise: # get_value(readout='TGI', item= O=C(O)COc1ccc(C(=O)/C(SS/C(C(=O)c2ccc(OCC(=O)O)c(Cl)c2Cl)=C2\C=C(c3ccc(F)cc3)SS2)=C2/C=C(c3ccc(F)cc3)SS2)c(Cl)c1Cl )
Key: > 95.8 µM

Exercise: # get_value(readout='TGI', item= COc1ccc(C(=O)NCCC2=CCCCC2)cc1 )
Key: > 100 µM

Exercise: # get_value(readout='TGI', item= Cc1cc2c(c3c1c1ccccc1n3C)C(=O)c1ccccc1C2=O )
Key: > 100 µM

Exercise: # get_value(readout='TGI', item= C=C1CCC(OC(C)=O)C2(C)C(OC(C)=O)CC3OC3(C)C2C(OC(C)=O)C2C(C)C(=O)OC2C1Cl (stereo not given) )
Key: > 100 µM

Exercise: # get_value(readout='TGI', item= CCOc1ccccc1N1C(=O)C(=O)C(c2nc3ccccc3s2)C(=O)C1=O )
Key: > 100 µM

The reported measurements were obtained from PubChem BioAssay (NCI).
